Target: FadD1 (Pseudomonas aeruginosa)
Construct: labelled for MST
Sequence (Q9HYU4 entry or part of it): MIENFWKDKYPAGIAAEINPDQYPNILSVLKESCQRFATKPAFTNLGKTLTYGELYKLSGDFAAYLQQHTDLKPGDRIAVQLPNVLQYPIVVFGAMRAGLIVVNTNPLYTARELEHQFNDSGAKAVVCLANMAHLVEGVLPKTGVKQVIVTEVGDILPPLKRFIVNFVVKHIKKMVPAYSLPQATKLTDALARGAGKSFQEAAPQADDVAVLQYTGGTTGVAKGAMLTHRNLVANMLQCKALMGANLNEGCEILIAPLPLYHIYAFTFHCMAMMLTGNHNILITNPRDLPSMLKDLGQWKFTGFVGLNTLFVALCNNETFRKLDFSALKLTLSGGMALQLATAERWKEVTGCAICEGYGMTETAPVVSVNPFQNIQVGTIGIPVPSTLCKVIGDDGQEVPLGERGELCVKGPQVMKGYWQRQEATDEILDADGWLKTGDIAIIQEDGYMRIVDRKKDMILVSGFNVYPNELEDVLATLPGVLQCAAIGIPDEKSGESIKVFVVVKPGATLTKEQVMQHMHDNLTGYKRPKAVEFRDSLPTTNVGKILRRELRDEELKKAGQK
Experiment: microscale thermophoresis
recorded-endpoint: Kd (µM)
Please state the figure in µM; there is no need to write the unit.

Task item: Suppose we examine the compound CCCCCCC/C=C\C(=O)O [cis-DA] ; what Kd value has been reported?
Reply: 1.06

Task item: Please answer likewise for CCCCCCCCC/C=C\C(=O)O
Reply: 1.65

The reported numbers originate from paper PMC12754631.
